Consider the following compounds and their measured pEC50 readings.
Biological target: full-length beta-catenin (Axin site) (Homo sapiens, UniProt P35222)
Construct: 15 nM full-length beta-catenin, 20 nM FITC labeled peptide in buffer
Sequence (P35222 whole entry): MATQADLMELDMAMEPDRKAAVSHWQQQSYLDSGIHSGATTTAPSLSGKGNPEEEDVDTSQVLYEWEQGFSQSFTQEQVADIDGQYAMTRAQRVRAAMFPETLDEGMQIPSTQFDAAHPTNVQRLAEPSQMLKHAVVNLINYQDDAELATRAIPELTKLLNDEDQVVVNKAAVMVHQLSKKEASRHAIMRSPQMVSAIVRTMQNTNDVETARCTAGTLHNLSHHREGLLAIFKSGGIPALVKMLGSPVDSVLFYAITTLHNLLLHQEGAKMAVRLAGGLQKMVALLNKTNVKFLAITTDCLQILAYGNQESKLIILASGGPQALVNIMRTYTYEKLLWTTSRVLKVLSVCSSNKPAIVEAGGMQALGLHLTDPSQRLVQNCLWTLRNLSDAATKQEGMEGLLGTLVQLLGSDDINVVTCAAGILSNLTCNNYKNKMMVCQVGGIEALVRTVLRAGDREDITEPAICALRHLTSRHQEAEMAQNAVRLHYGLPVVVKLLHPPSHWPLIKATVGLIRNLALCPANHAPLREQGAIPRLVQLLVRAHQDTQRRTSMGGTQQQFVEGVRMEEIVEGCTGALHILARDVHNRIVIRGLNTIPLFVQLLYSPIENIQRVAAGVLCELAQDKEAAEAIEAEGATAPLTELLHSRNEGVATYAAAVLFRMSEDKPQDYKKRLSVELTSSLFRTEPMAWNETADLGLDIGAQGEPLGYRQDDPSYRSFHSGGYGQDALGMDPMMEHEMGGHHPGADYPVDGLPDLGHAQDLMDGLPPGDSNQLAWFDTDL
Experiment: Competition fluorescence polarization assay (Axin site probe)
Type: binding
Conditions: competition fluorescence polarization, Table 2; read-out: in vitro FP EC50
Method: FIG. 1. […] Peptide solutions were prepared in buffer (50 mM Tris pH 8.0, 250 mM NaCl, 2% glycerol, 0.5 mM EDTA, 0.02% w/v sodium azide) using a 3-fold serial dilution from 5 μM. […] Equal volume of the titrated peptide was added to the plate and incubated protected from light for 15 minutes prior to read. Reads were performed on a Spectramax M5 (Molecular Devices) in duplicate. FIG. 7. […] Reads were performed on a Spectramax M5 (Molecular Devices) in duplicate. […]
pEC50: −log10 of the molar value.

| compound | pEC50 |
| --- | --- |
| CC[C@H](C)[C@@H]1NC(=O)[C@H](Cc2ccccn2)NC(=O)[C@H](C)NC(=O)[C@H](CC(=O)O)NC(=O)[C@H](CC(C)C)NC(=O)[C@H]([C@@H](C)CC)NC(=O)[C@](C)(NC(=O)[C@H](C)NC(C)=O)CCCCCCC=CCOC(=O)N2CC[C@@](C(=O)N[C@@H](CCC(N)=O)C(=O)N[C@H](C(=O)N[C@@H](Cc3c[nH]c4ccccc34)C(N)=O)C(C)C)(C2)NC1=O (single isomer, unassigned) [FP0559c Isomer 1, Ac-A-R8-I-L-D-A-2pyr-I-MB-Q-V-W-NH2] | < 5.30 |

Note: attention shifts to another entry.
Input line: Identify pEC50 associated with the compound CC[C@H](C)[C@@H]1NC(=O)[C@]2(NC(=O)[C@H](CCC(N)=O)NC(=O)[C@@H]3CCCN3C(C)=O)CCN(C2)C(=O)OCC=CCCCC[C@@](C)(C(=O)N[C@@H](Cc2c[nH]cn2)C(=O)N[C@H](C(=O)N[C@@H](CCCNC(=N)N)C(=O)N[C@@H](CCCNC(=N)N)C(=O)N[C@H](C(=O)N[C@@H](Cc2c[nH]c3ccccc23)C(=O)N[C@@H](CCCNC(=N)N)C(N)=O)C(C)C)C(C)C)NC(=O)[C@H](CC(=O)O)NC(=O)[C@H](CC(C)C)NC1=O (single isomer, unassigned) [FP0752c, Ac-P-Q-MB-I-L-D-S6-H-V-R-R-V-W-R-NH2]
Output line: 5.30 to 6.30

Value source: patent US11198713B2
